System: SK-N-FI (Neuroblastoma)
method-description: Bliss excess, mean over the matrix (fraction); higher = more synergy
Note to self: values exactly at -0.02 are true. So Bliss excess at or above -0.02 is true, below is false.

compound	assigned-category
Cc1c2c(nn1C)CSCc1cc(n(C)n1)CSc1cc(c3ccccc3c1)OCCCc1c(C(=O)O)n(C)c3c-2c(Cl)ccc13 [AZD5991] + C=CCn1c(=O)c2cnc(Nc3ccc(N4CCN(C)CC4)cc3)nc2n1-c1cccc(C(C)(C)O)n1 [AZD1775] (first compound max 1 µM, partner max 1 µM)	false
CC(=O)c1c(C)c2cnc(Nc3ccc(N4CCNCC4)cn3)nc2n(C2CCCC2)c1=O [Palbociclib] + Cn1cnc2c(F)c(Nc3ccc(Br)cc3Cl)c(C(=O)NOCCO)cc21 [Selumetinib] (first compound max 10 µM, 7x7, partner max 10 µM)	true
NC1(C(=O)N[C@@H](CCO)c2ccc(Cl)cc2)CCN(c2ncnc3[nH]ccc23)CC1 [Capivasertib] + Cn1cnc2c(F)c(Nc3ccc(Br)cc3Cl)c(C(=O)NOCCO)cc21 [Selumetinib] (first compound max 10 µM, 7x7, partner max 10 µM)	false
C=CCn1c(=O)c2cnc(Nc3ccc(N4CCN(C)CC4)cc3)nc2n1-c1cccc(C(C)(C)O)n1 [AZD1775] + Nc1ccn([C@@H]2O[C@H](CO)[C@@H](O)C2(F)F)c(=O)n1 [Gemcitabine] (first compound max 1 µM, partner max 0.3 µM)	true
N#Cc1cnc(Nc2cc(NC[C@H]3CNCCO3)c(C(F)(F)F)cn2)cn1 [SRA737] + C=CCn1c(=O)c2cnc(Nc3ccc(N4CCN(C)CC4)cc3)nc2n1-c1cccc(C(C)(C)O)n1 [AZD1775] (first compound max 10 µM, partner max 1 µM)	true

API: above_or_equal(metric=Bliss excess, cutoff=-0.02) for item Cc1c2c(nn1C)CSCc1cc(n(C)n1)CSc1cc(c3ccccc3c1)OCCCc1c(C(=O)O)n(C)c3c-2c(Cl)ccc13 [AZD5991] + CC1(C)CCC(CN2CCN(c3ccc(C(=O)NS(=O)(=O)c4ccc(NCC5CCOCC5)c([N+](=O)[O-])c4)c(Oc4cnc5[nH]ccc5c4)c3)CC2)=C(c2ccc(Cl)cc2)C1 [Venetoclax] (first compound max 1 µM, 7x7, partner max 1 µM)
true

----------
Measured Bliss excess by item
Tested on: SK-N-FI (Neuroblastoma)
method-description: Bliss excess, mean over the matrix (fraction); higher = more synergy
// return a plain number; no unit text

compound	study-target	endpoint-name	recorded-result
CC1(C)CCC(CN2CCN(c3ccc(C(=O)NS(=O)(=O)c4ccc(NCC5CCOCC5)c([N+](=O)[O-])c4)c(Oc4cnc5[nH]ccc5c4)c3)CC2)=C(c2ccc(Cl)cc2)C1 [Venetoclax] + CCN(CCO)CCCOc1ccc2c(Nc3cc(CC(=O)Nc4cccc(F)c4)[nH]n3)ncnc2c1 [AZD2811] (first compound max 1 µM, 7x7, partner max 1 µM)	SK-N-FI (Neuroblastoma)	Bliss excess	-0.0456
N#Cc1cnc(Nc2cc(NC[C@H]3CNCCO3)c(C(F)(F)F)cn2)cn1 [SRA737] + CCc1c2c(nc3ccc(O)cc13)-c1cc3c(c(=O)n1C2)COC(=O)[C@]3(O)CC [SN-38] (first compound max 10 µM, 7x7, partner max 0.3 µM)	SK-N-FI (Neuroblastoma)	Bliss excess	-0.121

Please list Bliss excess recorded for the compound O=C(c1cc(Cc2n[nH]c(=O)c3ccccc23)ccc1F)N1CCN(C(=O)C2CC2)CC1 [Olaparib] + CC1(C)CCC(CN2CCN(c3ccc(C(=O)NS(=O)(=O)c4ccc(NCC5CCOCC5)c([N+](=O)[O-])c4)c(Oc4cnc5[nH]ccc5c4)c3)CC2)=C(c2ccc(Cl)cc2)C1 [Venetoclax] (first compound max 10 µM, 7x7, partner max 1 µM)
-0.0527

----------
Tested on: MDA-MB-231 (Breast Carcinoma)
method-description: combination Emax (second highest fraction inhibited in the dose matrix, 72 h); higher = more inhibition; extreme values may be limits of the assay
endpoint-name: combination Emax
Please state the value as a number alone, without comment.

Provide only the value of recorded combination Emax for CC(=O)c1c(C)c2cnc(Nc3ccc(N4CCNCC4)cn3)nc2n(C2CCCC2)c1=O [Palbociclib] + CC1(C)CCC(CN2CCN(c3ccc(C(=O)NS(=O)(=O)c4ccc(NCC5CCOCC5)c([N+](=O)[O-])c4)c(Oc4cnc5[nH]ccc5c4)c3)CC2)=C(c2ccc(Cl)cc2)C1 [Venetoclax] (first compound max 10 µM, 7x7, partner max 1 µM)
0.408

Supply combination Emax value. Item: CN(CCO)CC[C@H](CSc1ccccc1)Nc1ccc(S(=O)(=O)NC(=O)c2ccc(N3CCC([C@@H](O)c4ccccc4-c4ccc(Cl)cc4)CC3)cc2)cc1S(=O)(=O)C(F)(F)F [AZD4320] + C[C@@H]1COCCN1C2=NC(=NC(=C2)C3(CC3)[S@](=N)(=O)C)C4=C5C=CNC5=NC=C4 [AZD6738] (first compound max 1 µM, 7x7, partner max 10 µM)
0.849

Query combination Emax for NC1(C(=O)N[C@@H](CCO)c2ccc(Cl)cc2)CCN(c2ncnc3[nH]ccc23)CC1 [Capivasertib] + C[C@@H]1COCCN1C2=NC(=NC(=C2)C3(CC3)[S@](=N)(=O)C)C4=C5C=CNC5=NC=C4 [AZD6738] (first compound max 10 µM, 7x7, partner max 10 µM)
0.74

----------
System: KATOIII (Gastric Carcinoma)
method-description: Bliss excess, mean over the matrix (fraction); higher = more synergy
endpoint-name: Bliss excess
Please state the value as a number alone, without comment.

molecule	Bliss excess
CC1(C)CCC(CN2CCN(c3ccc(C(=O)NS(=O)(=O)c4ccc(NCC5CCOCC5)c([N+](=O)[O-])c4)c(Oc4cnc5[nH]ccc5c4)c3)CC2)=C(c2ccc(Cl)cc2)C1 [Venetoclax] + COc1cc(Nc2ncc3c(n2)-c2ccc(Cl)cc2C(c2c(F)cccc2OC)=NC3)ccc1C(=O)O [Alisertib] (first compound max 1 µM, 7x7, partner max 10 µM)	-0.0587
C[C@@H]1COCCN1c1cc(C2([S@](C)(=N)=O)CC2)nc(-c2ccnc3[nH]ccc23)n1 [AZD6738] + Nc1ccn([C@@H]2O[C@H](CO)[C@@H](O)C2(F)F)c(=O)n1 [Gemcitabine] (first compound max 10 µM, 7x7, partner max 0.3 µM)	0.0057

Next, consider the following molecule.
Please report the measured Bliss excess for CC(=O)c1c(C)c2cnc(Nc3ccc(N4CCNCC4)cn3)nc2n(C2CCCC2)c1=O [Palbociclib] + Cn1cnc2c(F)c(Nc3ccc(Br)cc3Cl)c(C(=O)NOCCO)cc21 [Selumetinib] (first compound max 10 µM, 7x7, partner max 10 µM) tested on KATOIII (Gastric Carcinoma).
0.0393

----------
Parameter Bliss excess: see the listing below.
Tested on: CFPAC-1 (Pancreatic Carcinoma)
method-description: Bliss excess, mean over the matrix (fraction); higher = more synergy
The answer should be a number; do not append a unit.

Here's what some known entries look like.
compound	recorded-result
CN(C)CCCOc1ccc(-c2ccc3ncc4c(c3c2)n(C2CCOCC2)c(=O)n4C)cn1 [AZD0156] + C[C@@H]1COCCN1C2=NC(=NC(=C2)C3(CC3)[S@](=N)(=O)C)C4=C5C=CNC5=NC=C4 [AZD6738] (first compound max 1 µM, 7x7, partner max 10 µM)	-0.0137
CC(=O)c1c(C)c2cnc(Nc3ccc(N4CCNCC4)cn3)nc2n(C2CCCC2)c1=O [Palbociclib] + CC1(C)CCC(CN2CCN(c3ccc(C(=O)NS(=O)(=O)c4ccc(NCC5CCOCC5)c([N+](=O)[O-])c4)c(Oc4cnc5[nH]ccc5c4)c3)CC2)=C(c2ccc(Cl)cc2)C1 [Venetoclax] (first compound max 10 µM, 7x7, partner max 1 µM)	0.015

Turning now to a further record.
Specify reported Bliss excess for the compound shown: CCN(CCO)CCCOc1ccc2c(Nc3cc(CC(=O)Nc4cccc(F)c4)[nH]n3)ncnc2c1 [AZD2811] + C=CCn1c(=O)c2cnc(Nc3ccc(N4CCN(C)CC4)cc3)nc2n1-c1cccc(C(C)(C)O)n1 [AZD1775] (first compound max 1 µM, partner max 1 µM)
-0.0695

----------
Tested on: DMS-273 (Small Cell Lung Carcinoma)
method-description: Bliss excess, mean over the matrix (fraction); higher = more synergy
Reported Bliss excess values follow for various compounds
Form: value (number only, do not type unit).

Name the recorded Bliss excess of the item Cc1cc2ncnn2cc1Nc1ncc2c(n1)n(C1CCOCC1)c(=O)n2C [AZD7648] + CCN(CCO)CCCOc1ccc2c(Nc3cc(CC(=O)Nc4cccc(F)c4)[nH]n3)ncnc2c1 [AZD2811] (first compound max 10 µM, 7x7, partner max 1 µM) in your answer.
-0.0368

Tell me its Bliss excess given Cc1c2c(nn1C)CSCc1cc(n(C)n1)CSc1cc(c3ccccc3c1)OCCCc1c(C(=O)O)n(C)c3c-2c(Cl)ccc13 [AZD5991] + CCN(CCO)CCCOc1ccc2c(Nc3cc(CC(=O)Nc4cccc(F)c4)[nH]n3)ncnc2c1 [AZD2811] (first compound max 1 µM, 7x7, partner max 1 µM) as the entry.
-0.0949

Please give the documented Bliss excess of COc1nnc2ccc(N3CCC(c4ccc(OCCN5CCN(C)C(=O)[C@H]5C)cc4)CC3)nn12 [AZD5153] + CC1(C)CCC(CN2CCN(c3ccc(C(=O)NS(=O)(=O)c4ccc(NCC5CCOCC5)c([N+](=O)[O-])c4)c(Oc4cnc5[nH]ccc5c4)c3)CC2)=C(c2ccc(Cl)cc2)C1 [Venetoclax] (first compound max 1 µM, 7x7, partner max 1 µM)
-0.0627

Look up and state reported Bliss excess for CN(CCO)CC[C@H](CSc1ccccc1)Nc1ccc(S(=O)(=O)NC(=O)c2ccc(N3CCC([C@@H](O)c4ccccc4-c4ccc(Cl)cc4)CC3)cc2)cc1S(=O)(=O)C(F)(F)F [AZD4320] + C=CCn1c(=O)c2cnc(Nc3ccc(N4CCN(C)CC4)cc3)nc2n1-c1cccc(C(C)(C)O)n1 [AZD1775] (first compound max 1 µM, partner max 1 µM)
-0.0229

Report Bliss excess, nothing else, for this compound: COc1cccc(OCCCN)c1-c1cc(Nc2cnc(C#N)cn2)n[nH]1 [Prexasertib] + O=C(c1cc(Cc2n[nH]c(=O)c3ccccc23)ccc1F)N1CCN(C(=O)C2CC2)CC1 [Olaparib] (first compound max 1 µM, 7x7, partner max 10 µM)
-0.0009

Give Bliss excess for C[C@@H](c1ccc2nccn2c1)n1nnc2ncc(-c3cnn(C)c3)nc21 [Savolitinib] + CC1(C)CCC(CN2CCN(c3ccc(C(=O)NS(=O)(=O)c4ccc(NCC5CCOCC5)c([N+](=O)[O-])c4)c(Oc4cnc5[nH]ccc5c4)c3)CC2)=C(c2ccc(Cl)cc2)C1 [Venetoclax] (first compound max 1 µM, 7x7, partner max 1 µM)
-0.0398

Give reported Bliss excess value for COc1cccc(OCCCN)c1-c1cc(Nc2cnc(C#N)cn2)n[nH]1 [Prexasertib] + C[C@@H]1COCCN1C2=NC(=NC(=C2)C3(CC3)[S@](=N)(=O)C)C4=C5C=CNC5=NC=C4 [AZD6738] (first compound max 1 µM, 7x7, partner max 10 µM)
-0.0374
